The reported measurements were obtained from patent US20260078159A1.

Recorded PD1 blocking activity (reporter assay) Vmax, one value per entry.
target: human PD1 on cells (human, UniProt Q15116 25-288); assay: cell-based or functional assay
Sequence (Q15116 25-288 limits assumed): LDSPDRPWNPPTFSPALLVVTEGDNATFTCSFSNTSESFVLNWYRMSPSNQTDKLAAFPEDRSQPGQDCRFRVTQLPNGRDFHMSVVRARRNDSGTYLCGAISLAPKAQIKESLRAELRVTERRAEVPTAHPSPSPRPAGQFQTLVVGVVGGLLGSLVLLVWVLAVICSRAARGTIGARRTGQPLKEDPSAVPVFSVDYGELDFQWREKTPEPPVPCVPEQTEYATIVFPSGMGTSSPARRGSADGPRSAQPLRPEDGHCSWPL

Reference set (2 entries):
{"BINDER": "P-1150 (antibody, human IgG1, kappa, V domains shown, Full-length IgG1 L234A/L235A/G237A, kappa) VH: QVQLVQSGVEVKKPGASVKVSCKASGYTFTNYYMYWVRQAPGQGLEWMGGINPSNGGTNFAQKFQGRVTLTTDSSTTTAYMELKSLQFDDTAVYYCARRDYRFDMGFDYWGQGTTVTVSS VL: EIVLTQSPATLSLSPGERATLSCRASQGVSTSGYSYLAWYQQKPGQAPRLLIYLASYRASGVPARFSGSGSGTDFTLTISSLEPEDFAVYYCQHSRDLPLTFGGGTKVEIKR", "RESULT": "36500 RLU"}
{"BINDER": "P-1148 (antibody, human IgG1, kappa, V domains shown, Full-length IgG1 L234A/L235A/G237A, kappa) VH: QVQLVQSGVEVKKPGASVKVSCKASGYTFTNYYMYWVRQAPGQGLEWMGGINPSNGGTNFAQKFQGRVTLTTDSSTTTAYMELKSLQFDDTAVYYCARRDYRFDMGFDYWGQGTTVTVSS VL: EIVLTQSPATLSLSPGERATLSCRASQGVSTSGYSYLHWYQQKPGQAPRLLIYLASYRASGVPARFSGSGSGTDFTLTISSLEPEDFAVYYCQHSRDLPLTFGGGTKVEIKR", "RESULT": "48200 RLU"}

Here is another binder to look at.
Query block: Give me measured PD1 blocking activity (reporter assay) Vmax, please, for this binder: P-1151 (antibody, human IgG1, kappa, V domains shown, Full-length IgG1 L234A/L235A/G237A, kappa) VH: QVQLVQSGVEVKKPGASVKVSCKASGYTFTNYYMYWVRQAPGQGLEWMGGINPSNGGTNYAQKFQGRVTLTTDSSTTTAYMELKSLQFDDTAVYYCARRDYRFDMGFDYWGQGTTVTVSS VL: EIVLTQSPATLSLSPGERATLSCRASQGVSTSGYSYLHWYQQKPGQAPRLLIYLASYRASGVPARFSGSGSGTDFTLTISSLEPEDFAVYYCQHSRDLPLTFGGGTKVEIKR
Result block: 44300 RLU
